Data origin: patent US8367666B2

target: CB2 receptor (Homo sapiens); test: Human cannabinoid receptor bonding inhibition test ([3H]CP55940), CB2; type: binding; set-up: expressed in transfected cells; membrane fraction
Sequence (P34972 whole entry): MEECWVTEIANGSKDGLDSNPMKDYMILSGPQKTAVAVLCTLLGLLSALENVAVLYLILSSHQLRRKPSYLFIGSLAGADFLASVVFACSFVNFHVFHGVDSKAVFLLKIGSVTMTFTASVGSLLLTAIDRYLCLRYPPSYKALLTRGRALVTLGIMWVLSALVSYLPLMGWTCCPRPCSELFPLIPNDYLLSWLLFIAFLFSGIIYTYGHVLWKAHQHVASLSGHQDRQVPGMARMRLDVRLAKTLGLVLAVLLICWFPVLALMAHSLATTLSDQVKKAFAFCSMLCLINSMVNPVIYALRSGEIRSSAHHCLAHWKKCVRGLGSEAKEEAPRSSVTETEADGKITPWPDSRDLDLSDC
MEASURED_ENDPOINT: log10(Ki) (log10 of the value in nM)

| COMPOUND | TARGET_OR_SYSTEM | MEASURED_ENDPOINT | QUANTITATIVE_READOUT |
| --- | --- | --- | --- |
| CCc1c(C)cc(C(=O)NC(CC)(CC)CC(=O)O)c(=O)n1Cc1ccc(F)cc1 | CB2 receptor (Homo sapiens) | log10(Ki) | 0.52 |
| O=C(O)COc1ccc(NC(=O)c2cc3c(n(CC4CCCCC4)c2=O)CCCCCC3)cc1 | CB2 receptor (Homo sapiens) | log10(Ki) | 1.26 |
| CCc1c(C)cc(C(=O)Nc2nc(CC(=O)O)cs2)c(=O)n1Cc1ccc(F)c(F)c1 | CB2 receptor (Homo sapiens) | log10(Ki) | 1.73 |
| C/C=C/C(CC(=O)O)NC(=O)c1cc2c(n(CC3CCCCC3)c1=O)CCCCCC2 (centres unmarked) | CB2 receptor (Homo sapiens) | log10(Ki) | 1.68 |
| CCCCn1c(CCC)c(CC)cc(C(=O)NC2(CC(=O)O)CCCC2)c1=O | CB2 receptor (Homo sapiens) | log10(Ki) | 1.38 |
| CCCCn1c2c(cc(C(=O)NC3(CC(=O)O)CCCCC3)c1=O)CCCCCC2 | CB2 receptor (Homo sapiens) | log10(Ki) | 0.53 |
| CCCCn1c2c(cc(C(=O)NC(CC)(CC)CC(=O)O)c1=O)CCCCCC2 | CB2 receptor (Homo sapiens) | log10(Ki) | 1.00 |
| O=C(O)Cc1csc(NC(=O)c2cc3c(n(CC4CCCCC4)c2=O)CCCCCC3)c1 | CB2 receptor (Homo sapiens) | log10(Ki) | 1.63 |
| CCCCNC(=O)C1CCCN(C(=O)C(C)(C)NC(=O)c2cc3c(n(CC4CCCCC4)c2=O)CCCCCC3)C1 (centres unmarked) | CB2 receptor (Homo sapiens) | log10(Ki) | 1.04 |
| O=C(O)CC(NC(=O)c1cc2c(n(CC3CCCCC3)c1=O)CCCCCC2)C(F)(F)F (centres unmarked) | CB2 receptor (Homo sapiens) | log10(Ki) | 1.61 |
| CC(=O)N1CCN(C(=O)C(C)(C)NC(=O)c2cc3c(n(CC4CCCCC4)c2=O)CCCCCC3)CC1 | CB2 receptor (Homo sapiens) | log10(Ki) | 0.86 |
| CCc1c(C)cc(C(=O)NCC2(CC(=O)O)CCCCC2)c(=O)n1Cc1ccc(F)cc1 | CB2 receptor (Homo sapiens) | log10(Ki) | 1.61 |
| CC(C)C[C@@H](CC(=O)O)NC(=O)c1cc2c(n(Cc3ccc(F)cc3)c1=O)CCCCCC2 | CB2 receptor (Homo sapiens) | log10(Ki) | 1.43 |
| CCCCn1c2c(cc(C(=O)NC3(C(=O)O)CCCCCCCCC3)c1=O)CCCCCC2 | CB2 receptor (Homo sapiens) | log10(Ki) | 1.18 |
| CCOC(=O)C1CCCCC1NC(=O)c1cc2c(n(CCCNC(C)=O)c1=O)CCCCCC2 (centres unmarked) | CB2 receptor (Homo sapiens) | log10(Ki) | 0.40 |
| CCCC(CC(=O)O)NC(=O)c1cc2c(n(CC3CCCCC3)c1=O)CCCCCC2 (centres unmarked) | CB2 receptor (Homo sapiens) | log10(Ki) | 1.96 |
| CC(C)(NC(=O)c1cc2c(n(CC3CCCCC3)c1=O)CCCCCC2)C(=O)C1CCCC(C(N)=O)N1 (centres unmarked) | CB2 receptor (Homo sapiens) | log10(Ki) | 0.87 |
| COCCn1c2c(cc(C(=O)NC3(CC(=O)O)CCCC3)c1=O)CCCCCC2 | CB2 receptor (Homo sapiens) | log10(Ki) | 1.49 |
| CCCCn1c2c(cc(C(=O)NC3(CC(=O)O)CCCC3)c1=O)CCCCCC2 | CB2 receptor (Homo sapiens) | log10(Ki) | 0.57 |
| CC(C)CCn1c2c(cc(C(=O)NC(C(=O)O)c3cccs3)c1=O)CCCCCC2 (centres unmarked) | CB2 receptor (Homo sapiens) | log10(Ki) | 0.34 |
| CC(C)(C)OC(=O)NC1CCN(C(=O)C(C)(C)NC(=O)c2cc3c(n(CC4CCCCC4)c2=O)CCCCCC3)CC1 | CB2 receptor (Homo sapiens) | log10(Ki) | 1.04 |
| CC(C)NC(=O)N1CCN(C(=O)C(C)(C)NC(=O)c2cc3c(n(CC4CCCCC4)c2=O)CCCCCC3)CC1 | CB2 receptor (Homo sapiens) | log10(Ki) | 0.40 |
| CCCCn1c2c(cc(C(=O)NCc3ccccc3)c1=O)CCCCCC2 [Compound 4-101, reference compound] | CB2 receptor (Homo sapiens) | log10(Ki) | 0.28 |
| CC(C)NC(=O)NC1CCN(C(=O)C(C)(C)NC(=O)c2cc3c(n(CC4CCCCC4)c2=O)CCCCCC3)CC1 | CB2 receptor (Homo sapiens) | log10(Ki) | 0.60 |
| CCCCn1c(CCC)c(CC)cc(C(=O)NC(CC)(CC)CC(=O)O)c1=O | CB2 receptor (Homo sapiens) | log10(Ki) | 1.49 |

* * *

Attribute: IC50
target: UniProt:P21554; test: cAMP formation inhibition experiment through a cannabinoid receptor (forskolin stimulation), CB1; type: cell-based; design: expressed in transfected cells; host or cells: CHO cells; conditions: read-out: Agonist activity (nM) CB1

| SMILES_REPR | VALUE_RELATION_SIGN | IC50 (nM) |
| --- | --- | --- |
| CC(C)(NC(=O)c1cc2c(n(CC3CCCCC3)c1=O)CCCCCC2)C(=O)N1CCC(C(=O)NNS(C)(=O)=O)CC1 | = | 118 |
| CN(CCO)C(=O)C(C)(C)NC(=O)c1cc2c(n(CC3CCCCC3)c1=O)CCCCCC2 | = | 8.1 |
| CC(C)(NC(=O)c1cc2c(n(CC3CCCCC3)c1=O)CCCCCC2)C(=O)N1CCC(C(=O)N2CCOCC2)CC1 | = | 79 |
| O=C(O)CC1(NC(=O)c2cc3c(n(CC4CCCCC4)c2=O)CCCCCC3)CCCCC1 | = | 11 |
| COC(=O)C(C)(C)NC(=O)c1cc2c(n(CC3CCCCC3)c1=O)CCCCCC2 | < | 2 |
| CSC(=O)C(C)(C)NC(=O)c1cc2c(n(CC3CCCCC3)c1=O)CCCCCC2 | < | 2 |
| CCCCn1c2c(cc(C(=O)N[C@H](C(=O)OC)C(C)(C)C)c1=O)CCCCCC2 | < | 2 |

* * *

Known IC50 of a selection of compounds
target: CB1 receptor (Homo sapiens); assay: cAMP formation inhibition experiment through a cannabinoid receptor (forskolin stimulation), CB1; assay type: cell-based; parameters: expressed in transfected cells; host or cells: CHO cells; conditions: read-out: Agonist activity (nM) CB1
Sequence (P21554 whole entry): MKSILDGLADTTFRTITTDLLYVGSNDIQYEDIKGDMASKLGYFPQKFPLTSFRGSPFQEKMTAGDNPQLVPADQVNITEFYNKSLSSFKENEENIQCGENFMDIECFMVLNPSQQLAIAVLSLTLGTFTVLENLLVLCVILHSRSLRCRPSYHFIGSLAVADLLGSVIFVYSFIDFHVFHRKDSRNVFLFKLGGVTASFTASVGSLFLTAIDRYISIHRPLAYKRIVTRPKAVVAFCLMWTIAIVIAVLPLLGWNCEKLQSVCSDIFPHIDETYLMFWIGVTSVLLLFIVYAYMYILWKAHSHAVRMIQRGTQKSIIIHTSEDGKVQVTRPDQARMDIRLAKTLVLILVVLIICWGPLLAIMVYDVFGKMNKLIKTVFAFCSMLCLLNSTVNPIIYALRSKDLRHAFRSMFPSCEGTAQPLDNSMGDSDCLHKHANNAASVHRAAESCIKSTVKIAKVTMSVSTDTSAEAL
MEASURED_ENDPOINT: IC50 (nM)

| COMPOUND | VALUE_RELATION_SIGN | QUANTITATIVE_READOUT |
| --- | --- | --- |
| CC(C)(NC(=O)c1cc2c(n(CC3CCCCC3)c1=O)CCCCCC2)C(N)=O [Compound I-002] | = | 11 |
| CC(C)(NC(=O)c1cc2c(n(CC3CCCCC3)c1=O)CCCCCC2)C(=O)OCC(O)CO (stereo not drawn) [Compound I-305] | < | 2 |
| CCc1c(C)cc(C(=O)N[C@H](C(=O)OC)C(C)C)c(=O)n1Cc1ccc(F)cc1 [Compound I-196] | < | 2 |
| O=C(NC(C(=O)O)c1ccco1)c1cc2c(n(CC3CCCCC3)c1=O)CCCCCC2 (stereo not drawn) [Compound I-530] | = | 305 |
| CC(C)CCn1c2c(cc(C(=O)NC(C(=O)O)c3cccs3)c1=O)CCCCCC2 (stereo not drawn) [Compound I-551] | = | 135 |
| COC(=O)[C@@H](NC(=O)c1cc2c(n(Cc3ccc(F)cc3)c1=O)CCCCCC2)C(C)(C)C [Compound I-263] | < | 2 |
| CNC(=O)CNC(=O)C(C)(C)NC(=O)c1cc2c(n(CC3CCCCC3)c1=O)CCCCCC2 [Compound I-590] | = | 51 |
| CCc1c(C)cc(C(=O)N[C@H](C(=O)NC(CO)CO)C(C)(C)C)c(=O)n1CC1CCCCC1 [Compound I-038] | = | 34 |
| CCCCNC(=O)C1CCCN(C(=O)C(C)(C)NC(=O)c2cc3c(n(CC4CCCCC4)c2=O)CCCCCC3)C1 (stereo not drawn) [Compound I-608] | > | 2000 |
| CCCCn1c2c(cc(C(=O)NC3(C(=O)OC)CCCCC3)c1=O)CCCCCC2 [Compound I-124] | < | 2 |
| COC(=O)[C@@H](NC(=O)c1cc2c(n(Cc3ccc(F)cc3)c1=O)CCCCCC2)C(C)C [Compound I-253] | < | 2 |
| CC(C)(NC(=O)c1cc2c(n(CC3CCCCC3)c1=O)CCCCCC2)C(=O)N1CCC(NS(=O)(=O)C(C)(C)C)CC1 [Compound I-048] | = | 328 |
| CC(C)NC(=O)N1CCN(C(=O)C(C)(C)NC(=O)c2cc3c(n(CC4CCCCC4)c2=O)CCCCCC3)CC1 [Compound I-604] | = | 55 |
| CC(C)(NC(=O)c1cc2c(n(CC3CCCCC3)c1=O)CCCCCC2)C(=O)Nc1ccc(NS(C)(=O)=O)cc1 [Compound I-533] | > | 2000 |
| COC(=O)C(C)(C)NC(=O)c1cc2c(n(Cc3ccc(F)cc3)c1=O)CCCCCC2 [Compound I-255] | < | 2 |
| CC(C)OC(=O)C(C)(C)NC(=O)c1cc2c(n(CC3CCCCC3)c1=O)CCCCCC2 [Compound I-301] | < | 2 |
| CC[C@@H](C)[C@H](NC(=O)c1cc(C)c(C)n(CC2CCCCC2)c1=O)C(=O)OC [Compound I-089] | < | 2 |
| CCc1c(C)cc(C(=O)N[C@H](C(=O)OC)C(C)(C)C)c(=O)n1CC1CCCCC1 [Compound I-252] | < | 2 |
| CCOC(=O)C(C)(C)NC(=O)c1cc2c(n(CC3CCCCC3)c1=O)CCCCCC2 [Compound I-300] | < | 2 |
| O=C(N[C@@H](C(=O)O)c1ccccc1)c1cc2c(n(CCCC(F)(F)F)c1=O)CCCCCC2 [Compound X-54] | > | 2000 |
| CC(C)(NC(=O)c1cc2c(n(CC3CCCCC3)c1=O)CCCCCC2)C(=O)C1CCCC(C(N)=O)N1 (stereo not drawn) [Compound I-580] | = | 41 |
| CC(C)NC(=O)NC1CCN(C(=O)C(C)(C)NC(=O)c2cc3c(n(CC4CCCCC4)c2=O)CCCCCC3)CC1 [Compound I-599] | = | 37 |
| CC(C)(C)OC(=O)NC1CCN(C(=O)C(C)(C)NC(=O)c2cc3c(n(CC4CCCCC4)c2=O)CCCCCC3)CC1 [Compound I-570] | = | 709 |
| CCc1c(C)cc(C(=O)N[C@H](C(=O)OC)C(C)C)c(=O)n1CC1CCCCC1 [Compound I-134] | < | 2 |
| CC(C)(NC(=O)c1cc2c(n(CC3CCCCC3)c1=O)CCCCCC2)C(=O)NNC(=O)c1cccnc1 [Compound I-556] | = | 357 |
| COCCn1c2c(cc(C(=O)NC3(CC(=O)O)CCCC3)c1=O)CCCCCC2 [XI-035] | > | 2000 |
| CC(C)(CNCCC(N)=O)NC(=O)c1cc2c(n(CC3CCCCC3)c1=O)CCCCCC2 [Compound I-588] | = | 72 |
| COC(=O)[C@@H](NC(=O)c1cc2c(n(CCCC#N)c1=O)CCCCCC2)C(C)C [Compound I-266] | = | 12 |
| COCOC(=O)C(C)(C)NC(=O)c1cc2c(n(CC3CCCCC3)c1=O)CCCCCC2 [Compound I-306] | < | 2 |
| CCCCn1c2c(cc(C(=O)N[C@H](C(=O)OC)C(C)C)c1=O)CCCCCC2 [Compound I-111] | < | 2 |
